test system: MCF7 breast; assay: NCI tumour cell line growth inhibition, 48 h; in the data active = GI50 below about 0.43 µM; inactive = the rest
Answer with one of the outcomes active, inactive

// query Outcome logged for CCCCCCCCSC1=CC(=O)C(OC)=C(OC)C1=O in this assay:
// result inactive

// query How about COc1cc(/C=C/C(=O)c2ccc(Nc3nc(Nc4ccc(F)cc4)nc(Nc4ccc(F)cc4)n3)cc2)cc(OC)c1OC ?
// result inactive

// query How about COc1ccc(C2CC(c3cc(OC)c(OC)c(OC)c3)=NN2)cc1 (stereo not drawn) ?
// result inactive

// query How about CC1SC(c2cccs2)N(NC(=O)C(O)c2ccccc2)C1=O (stereo not drawn) ?
// result inactive

// query How about CC(=O)OC1CC2(O)C(CCC3(C)C(c4ccc(=O)oc4)CCC32O)C2(C)CCC(O)C=C12 (stereo not drawn) ?
// result active

// query How about C[n+]1c2ccccc2c(NC2CCNCC2)c2[nH]c3ccccc3c21 ?
// result active

// query How about O=C(Nc1ccccc1Cl)c1ccc(NC2=C(Cl)C(=O)N(Cc3ccccc3)C2=O)cc1 ?
// result inactive

// query How about Cn1c(=O)c(F)c(Nc2ccc(I)cc2F)c2c(=O)n(C[C@@H](O)CO)cnc21 ?
// result inactive

// query How about Fc1ccc(Nc2nc(Nc3ccc(-c4nc5ccccc5[nH]4)cc3)nc(N3CCCC3)n2)cc1 ?
// result inactive

// query How about CCN1C(=O)N(c2c(F)c(OC)cc(OC)c2F)Cc2cnc3[nH]c(CN4CCOCC4)cc3c21 ?
// result inactive

// query How about O=[N+]([O-])c1ccc2[nH]cc(-c3c4ccccc4cc4[nH]c5ccc([N+](=O)[O-])cc5c34)c2c1 ?
// result inactive

// query How about CCCNc1nc(-c2ccc(OC)cc2)nc2ccccc12 ?
// result inactive

// query How about O=Nc1c(-c2cccc([N+](=O)[O-])c2)nc2ncccn12 ?
// result inactive

// query How about NC(=O)NC(=O)CI ?
// result inactive

// query How about Cc1cc(S(N)(=O)=O)c(S/C(=N\NS(=O)(=O)c2ccc(Cl)cc2)c2ccc(Cl)cc2)cc1Cl ?
// result inactive

// query How about CSC(=S)N/N=C(\C)c1ccccn1 ?
// result active

// query How about Nc1nc(Cl)nc2c1ncn2C1O[C@H](CO)[C@@H](O)[C@@H]1F (stereo partly drawn) ?
// result active

// query How about O=C1c2cccc3cccc(c23)C(=O)N1CCCCOc1ccc(-c2nc3ccc(N4CCOCC4)cc3[nH]2)cc1 ?
// result inactive

// query How about CC(O)CN(CCN(CC(C)O)CC(C)O)CC(C)O.O=[N+]([O-])O.[Cu+2] (stereo not drawn) ?
// result inactive

// query How about Cc1ccccc1NC(=O)NC(CC(N)=O)c1ccc2c(c1)nc(-c1cccc(Oc3ccc(C(C)(C)C)cc3)c1)n2CCCN1CCCCC1C (stereo not drawn) ?
// result inactive

// query How about COc1ccc(C(=O)Nc2cccc(C3CC(=O)c4c(cc(OC)c(OC)c4OC)O3)c2)cc1 (stereo not drawn) ?
// result inactive

// query How about Cc1c2c(nn1-c1ccc(S/N=C3\SCC(=O)CN3c3ccccc3)cc1)-c1ccccc1CC2 ?
// result inactive

// query How about Oc1ccc2ccccc2c1/C=N\Nc1ccccn1 ?
// result inactive

###

Please provide measured GI50 for the entries that follow.
test system: A549 NSCLC; test: NCI tumour cell line growth inhibition, 48 h

// query What GI50 value was documented for this molecule, COC(=O)c1ccc2c(c1)nc(-c1ccc(Cl)cc1)n2-c1cc(C(C)(C)C)[nH]n1 ?
// result 4.03 µM

// query How about Cn1c(=O)c(Cc2ccc(F)cc2F)cc2cnc(NC3CCOCC3)nc21 ?
// result > 25 µM

// query How about COc1cc2c(cc1-c1c(C)noc1C)ncc1nc(C3CCCCC3)n(C3CCC(OC(F)F)CC3)c12 (stereo unspecified) ?
// result 2.89 µM

// query How about Cc1ccccc1NC(=O)NC(CC(N)=O)c1ccc2c(c1)nc(-c1cccc(Oc3ccc(C(C)(C)C)cc3)c1)n2CCCN1CCCCC1C (stereo unspecified) ?
// result 5.54 µM

// query How about Cc1cc(S(N)(=O)=O)c(S/C(=N\NS(=O)(=O)c2ccc(Cl)cc2)c2ccc(Cl)cc2)cc1Cl ?
// result 49.1 µM

// query How about CCCNc1nc(-c2ccc(OC)cc2)nc2ccccc12 ?
// result 11.1 µM

###

test system: SNB-19 CNS; assay: NCI tumour cell line growth inhibition, 48 h
Please provide measured TGI for the entries that follow.

// query // fetch SNB-19 CNS TGI for CC(C)(C)NNc1c([N+](=O)[O-])cnn(-c2ccccc2)c1=O
// result 22.7 µM

// query How about c1ccc(COc2nc3ccc(C45CC6CC(CC(C6)C4)C5)cc3[nH]2)cc1 ?
// result > 100 µM

// query How about N#Cc1nn(-c2ccc(Cl)cc2)c(N)c2c(=N)n3nc(-c4ccccc4)cc3nc12 ?
// result > 100 µM

// query How about CC(C)(C)[C@@H]1NC(=O)CN1C(=O)OCc1ccccc1 ?
// result > 100 µM

// query How about CCC1OC2C(CC=C(C)C)=C3OC(C)(O)C(C)(CC)C(O)C3=C3OC(=O)C=C1C32 (stereo not given) ?
// result > 100 µM

// query How about O=c1c(-c2ccccc2)c[nH]c2cc([N+](=O)[O-])c(/C(Cl)=C/c3ccccc3)cc12 ?
// result > 54.5 µM

// query How about Cc1ccc(/C=C2\CCOC2=O)cc1 ?
// result > 100 µM

// query How about COC(=O)C1Cc2c([nH]c3ccccc23)-c2[nH]c3ccccc3c2CC(NC(C)=O)C(=O)NCC(=O)N1 (stereo not given) ?
// result > 100 µM

// query How about CC(C)C[C@H](NC(=O)[C@@H](Cc1cccc2ccccc12)NC(=O)N1CCOCC1)B(O)O ?
// result > 100 µM

// query How about C[Si](C)(C)/C(Br)=C\CCN1C(=O)CCC1O (stereo not given) ?
// result > 100 µM

// query How about Cn1cccc1-c1cc(-c2ccc(Br)cc2)nc(N)c1C#N ?
// result > 100 µM

// query How about CCCNc1nc(-c2ccc(OC)cc2)nc2ccccc12 ?
// result > 100 µM

// query How about Cc1cc2nc3c(C#N)c(-c4ccccc4)/c(=C\Nc4cccc(C(F)(F)F)c4)c(=O)n3c2cc1C ?
// result > 100 µM

// query How about CCOC(=O)Nc1ccc(S(=O)(=O)Nc2ccc(Br)cc2)cc1 ?
// result > 100 µM

// query How about CCOC(=O)c1ccc(N=C/C=C(\Nc2ccc(C(=O)OCC)cc2)c2ccc3ccccc3c2)cc1 ?
// result > 100 µM

// query How about Oc1ccc2ccccc2c1/C=N\Nc1ccccn1 ?
// result > 100 µM

// query How about COc1ccccc1NC(=O)C1=C(C)NC(C)=C(C(=O)Nc2ccccc2OC)C1c1ccc(C(C)C)cc1 ?
// result > 100 µM

// query How about O=c1[nH]c2ccc(CC(=S)N3CCN(c4ccccc4)CC3)cc2s1 ?
// result > 100 µM

// query How about C[C@H](NC(=O)OC1C2C=CC(O)C1CC2)c1ccccc1 (stereo not given in full) ?
// result > 100 µM

// query How about Cc1cc(SCC(=O)c2ccc(Br)cc2)cc(C)[o+]1 ?
// result > 100 µM

###

test system: RPMI-8226 leukemia; assay: NCI tumour cell line growth inhibition, 48 h
Please provide measured TGI for the entries that follow.
Output spec: scalar in µM, unitless text.

// query What TGI value was documented for this compound, CCCNc1nc(-c2ccc(OC)cc2)nc2ccccc12 ?
// result 22.6

// query How about Nc1nc(Cl)cc(NCC2(CO)CC(CCCCc3ccccc3)C2)n1 (stereo not drawn) ?
// result 86.2

// query How about COc1ccc2c(c1)CCC(CN1CCN(CCOC(c3ccc(F)cc3)c3ccc(F)cc3)CC1)=C2 ?
// result 36.9

// query How about O=C(OCCOCCOC(=O)c1c[nH]cc1-c1ccccc1)c1c[nH]cc1-c1ccccc1 ?
// result 56.9

// query How about CC1OC(OC2C(CO)OC(O[C@H]3CC[C@@]4(C)C(=CC[C@H]5[C@@H]6C[C@@H]7O[C@](O)(CC[C@@H](C)COC8OC(CO)C(O)C(O)C8O)[C@@H](C)[C@@H]7[C@@]6(C)CC[C@@H]54)C3)C(OC3OC(C)C(O)C(O)C3O)C2O)C(O)C(O)C1O (stereo partly drawn) ?
// result 10.2

// query How about CCCCOC(=O)N[C@H]1CCc2cc(OC)c(OC)c(OC)c2-c2ccc(SC)c(=O)cc21 ?
// result 17.1

// query How about CCOC(=O)c1c(OCC)[nH]c(=O)c(C(c2ccc(F)cc2)c2c(O)c(C(=O)OCC)c(OCC)[nH]c2=O)c1O ?
// result 58.3

// query How about COc1ccccc1NC(=S)N/N=C(/c1ccccc1)c1ccccn1 ?
// result 6.14

// query How about Cc1ccccc1NC(=O)NC(CC(N)=O)c1ccc2c(c1)nc(-c1cccc(Oc3ccc(C(C)(C)C)cc3)c1)n2CCCN1CCCCC1C (stereo not drawn) ?
// result 6.48

// query How about c1ccc(COc2nc3ccc(C45CC6CC(CC(C6)C4)C5)cc3[nH]2)cc1 ?
// result 30.9

// query How about COc1cc(/C=C\c2ccc(SC)cc2)cc(OC)c1OC ?
// result 25.2

// query How about COC(=O)c1ccc(/C=C/C2=CC(=O)C=CC2=O)cc1 ?
// result 4.49

// query How about COc1cc(-c2ccc(-c3ccc(C(=N)N)s3)s2)cc(OC)c1OC ?
// result 5.72

// query How about COC(=O)c1ccc2c(c1)nc(-c1ccc(Cl)cc1)n2-c1cc(C(C)(C)C)[nH]n1 ?
// result 11.2

// query How about NS(=O)(=O)c1ccc(-n2nc(-c3ccc(Cl)cc3)cc2C2=CC(=O)C=CC2=O)cc1 ?
// result 33.4

// query How about COc1ccc2c(CNCCCCO)cc3cc4c(cc3c2c1)OCO4 ?
// result 3.77

// query How about COc1ccc(OC)c2c1C[C@@H]1C(C#N)N3[C@H](Cc4c(OC)ccc(OC)c4[C@@H]3C)C(=O)N1[C@H]2C (stereo partly drawn) ?
// result 7.29

// query How about C/C=C/C1(NS(=O)(=O)c2ccc(C)cc2)CCC(C(C)(C)C)CC1 (stereo not drawn) ?
// result 47.1

// query How about CC(C)(C)c1cc(C(O)(C(F)(F)F)C(F)(F)F)c2c(c1)C(C(F)(F)F)(C(F)(F)F)OC(c1ccccc1)(C(C)(C)C)N2 (stereo not drawn) ?
// result 12.1

// query How about CNCCNc1nc2ccccc2c2c(=O)c3cccc(OC)c3sc12 ?
// result 3.28

// query How about C[C@H](NC(=O)OC1C2C=CC(O)C1CC2)c1ccccc1 (stereo partly drawn) ?
// result 48.6

// query How about NC(N)=Nc1ccc(-n2nc(C(F)(F)F)cc2-c2ccc3c(ccc4ccccc43)c2)cc1 ?
// result 5.06
